Biological target: GLUT1 (Homo sapiens)
Experiment: Indirect measurement of GLUT1 activity by quantification of intracellular ATP levels (glucose induced ATP increase)
Type: cell-based
Parameters: endogenous in cells; host or cells: DLD1 or CHO-K1
Conditions: read-out: IC50 regarding glucose induced ATP increase (GLUT1 inhibition)
Excerpt: Indirect Measurement of GLUT1 and GLUT2 Activity by Quantification of Intracellular ATP Levels It is well known that a combination of small-molecule inhibitors of mitochondrial electron transport chain and glucose catabolism synergistically suppress ATP production and impair cellular viability (Ulanovskaya et al., 2008, 2011; Liu, et al. 2001). We therefore used DLD1 or CHO-K1 cells in combination with an oxidative phosphorylation inhibitor to identify GLUT1 and GLUT2 inhibitors. […]
property: IC50 (µM)

COc1ccc(Cn2nc(C)c(NC(=O)c3cc(C(N)=O)nc4cc(F)c(Cl)cc34)c2C)cn1; 0.0012
Cc1nn(Cc2ccc(C(=O)NCC3CCCCC3)cc2)c(C)c1NC(=O)c1cc(C(F)(F)F)nc2ccc(Br)cc12; 1.87
Cc1c(NC(=O)c2cc(C(N)=O)nc3ccc(O)cc23)c(C(F)(F)F)nn1Cc1ccc(C#N)cc1; 0.0049
Cc1nc2ccccc2c(C(=O)Nc2c(C)nn(Cc3ccc(F)cc3)c2C)c1C#N; 2.38

###

Target: GLUT1 (Homo sapiens, UniProt P11166)
Sequence (P11166 whole entry, species assumed): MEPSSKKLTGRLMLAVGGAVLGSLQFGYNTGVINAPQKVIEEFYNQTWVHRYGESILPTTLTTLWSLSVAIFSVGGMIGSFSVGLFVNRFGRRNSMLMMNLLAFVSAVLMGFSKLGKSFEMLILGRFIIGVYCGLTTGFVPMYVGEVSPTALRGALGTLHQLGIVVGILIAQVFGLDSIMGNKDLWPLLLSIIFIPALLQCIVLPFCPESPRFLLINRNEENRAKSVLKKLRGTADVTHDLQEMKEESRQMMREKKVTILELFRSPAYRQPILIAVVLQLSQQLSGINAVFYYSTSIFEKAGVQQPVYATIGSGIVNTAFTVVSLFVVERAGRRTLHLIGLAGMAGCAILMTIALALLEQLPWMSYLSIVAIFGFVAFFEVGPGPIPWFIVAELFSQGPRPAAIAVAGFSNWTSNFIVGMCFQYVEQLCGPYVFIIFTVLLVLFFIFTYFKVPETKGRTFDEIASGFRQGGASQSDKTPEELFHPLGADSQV
Test: Indirect measurement of GLUT1 activity by quantification of intracellular ATP levels (glucose induced ATP increase)
Format: cell-based
Set-up: endogenous in cells; host or cells: DLD1 or CHO-K1
Settings: read-out: IC50 regarding glucose induced ATP increase (GLUT1 inhibition)
Excerpt: Indirect Measurement of GLUT1 and GLUT2 Activity by Quantification of Intracellular ATP Levels It is well known that a combination of small-molecule inhibitors of mitochondrial electron transport chain and glucose catabolism synergistically suppress ATP production and impair cellular viability (Ulanovskaya et al., 2008, 2011; Liu, et al. 2001). We therefore used DLD1 or CHO-K1 cells in combination with an oxidative phosphorylation inhibitor to identify GLUT1 and GLUT2 inhibitors. […]
pIC50: −log10 of the molar value.
Assign class by pIC50: not lower than 7 means condition met; lower than 7 means condition not met.

Cc1c(NC(=O)c2cc(C(N)=O)nc3cccc(F)c23)c(C(F)(F)F)nn1Cc1ccccc1C#N; condition met
Cc1c(NC(=O)c2cc(C(N)=O)nc3cc(F)c(F)cc23)c(C(F)(F)F)nn1Cc1ccc(C#N)cc1; condition met
Cc1nn(Cc2ccc(C(=O)NCCNC(=O)C3CC3)cc2)c(C)c1NC(=O)c1cc(C(F)(F)F)nc2ccc(Br)cc12; condition met
Cc1nn(Cc2ccc(C(=O)NCC(O)CO)cn2)c(C)c1NC(=O)c1cc(C(F)(F)F)nc2ccc(Br)cc12 (stereo not shown); condition not met
Cc1nn(Cc2ccccc2C#N)c(C)c1NC(=O)c1cc(C(N)=O)nc2cc(F)ccc12; condition met
Cc1ccc2nc(C)cc(C(=O)Nc3c(C)nn(Cc4ccccn4)c3C)c2c1; condition not met

###

Biological target: GLUT1 (Homo sapiens, UniProt P11166)
Assay: Indirect measurement of GLUT1 activity by quantification of intracellular ATP levels (glucose induced ATP increase)
Assay type: cell-based
Set-up: endogenous in cells; host or cells: DLD1 or CHO-K1
Conditions: read-out: IC50 regarding glucose induced ATP increase (GLUT1 inhibition)
property: IC50 (nM)

Cc1c(NC(=O)c2cc(C(N)=O)nc3cc(F)c(Cl)cc23)c(C#N)nn1Cc1ccc(F)cc1; 5.1
Cc1nn(Cc2ccc(F)cc2)c(C)c1NC(=O)c1cc(C2CC2)nc2ccc(Br)cc12; 7.7
COC(=O)N1CCC(Cn2nc(C)c(NC(=O)c3cc(C(F)(F)F)nc4ccc(Br)cc34)c2C)CC1; 195
Cc1nn(C(C)c2ccc(F)cc2)c(C)c1NC(=O)c1cc(C(F)(F)F)nc2ccc(Br)cc12 (racemic); 42.6
CC(=O)c1ccc(Cn2nc(C(F)(F)F)c(NC(=O)c3cc(C(N)=O)nc4ccccc34)c2C)cc1; 4.7
COc1ccc(CNC(=O)c2ccc(Cn3nc(C)c(NC(=O)c4cc(C(F)(F)F)nc5ccc(Br)cc45)c3C)cc2)cc1; 999
Cc1nn(C(C)c2ccccc2)c(C)c1NC(=O)c1cc(C(N)=O)nc2cc(F)c(Cl)cc12 (racemic); 1.8
Cc1nn(Cc2ccc(F)cc2)c(C)c1NC(=O)c1cc(C(F)(F)F)nc2ccc(Br)cc12; 6.2
Cc1cc(F)ccc1Cn1nc(C(F)(F)F)c(NC(=O)c2cc(C(N)=O)nc3cc(F)c(Cl)cc23)c1C; 6.5
Cc1nn(CC2CCOCC2)c(C)c1NC(=O)c1cc(C(F)(F)F)nc2c(Cl)cc(Cl)cc12; 114
COc1cc(C(=O)Nc2c(C(F)(F)F)nn(Cc3ccc(C#N)cc3)c2C)c2ccccc2n1; 22.5
Cc1nn(Cc2ccc(C(=O)N3CCC(O)CC3)cc2)c(C)c1NC(=O)c1cc(C(F)(F)F)nc2ccc(Br)cc12; 676
Cc1cc(Cn2nc(C)c(NC(=O)c3cc(C(N)=O)nc4cc(F)c(Cl)cc34)c2C)on1; 1.1
COCCN(CCC#N)C(=O)c1ccc(Cn2nc(C)c(NC(=O)c3cc(C(F)(F)F)nc4ccc(Br)cc34)c2C)cc1; 13.9
CCCNC(=O)c1ccc(Cn2nc(C)c(NC(=O)c3cc(C(F)(F)F)nc4ccc(Br)cc34)c2C)cc1; 1.9
Cc1nn(Cc2ccc(C(=O)NCCO)cn2)c(C)c1NC(=O)c1cc(C(F)(F)F)nc2ccc(Br)cc12; 38.4
CCc1c(NC(=O)c2cc(C(N)=O)nc3ccccc23)c(C)nn1Cc1ccc(C#N)cc1; 14.3
Cc1nn(Cc2ccc(C#N)cc2)c(C)c1NC(=O)c1cc(C(N)=O)nc2cccc(C)c12; 2.4
Cc1nn(Cc2ccc(OC(F)(F)F)cc2)c(C)c1NC(=O)c1cc(C(N)=O)nc2cccc(F)c12; 2.9
Cc1nn(Cc2ccc(F)cc2)c(C)c1NC(=O)c1cc(C(F)(F)F)nc2ccc(C#N)cc12; 462
Cc1nn(Cc2ccc(C#N)cc2)c(C)c1NC(=O)c1cc(C(N)=O)nc2cc(F)c(F)cc12; 5
Cc1nn(Cc2ccc(C#N)cc2)c(C)c1NC(=O)c1cc(S(N)(=O)=O)nc2ccccc12; 419
Cc1c(NC(=O)c2cc(C(N)=O)nc3cc(F)ccc23)c(C(F)(F)F)nn1Cc1ccc(F)c(F)c1; 4.6
Cc1c(NC(=O)c2cc(C(N)=O)nc3cc(F)c(Cl)cc23)c(C(F)(F)F)nn1Cc1cccc(C#N)c1; 1.8
CCc1nc(Cn2nc(C)c(NC(=O)c3cc(C(F)(F)F)nc4ccc(Br)cc34)c2C)no1; 13.4
Cc1nn(Cc2cccc(S(C)(=O)=O)c2)c(C)c1NC(=O)c1cc(C(N)=O)nc2cc(F)c(Cl)cc12; 34.4
Cc1c(NC(=O)c2cc(C(N)=O)nc3ccccc23)c(C(F)(F)F)nn1CC(=O)Nc1ccccc1O; 149
Cc1nn(Cc2ccc(F)cc2F)c(C)c1NC(=O)c1cc(C(N)=O)nc2cc(F)c(Cl)cc12; 6
COc1ccc(Cn2nc(C)c(NC(=O)c3cc(C(N)=O)nc4cc(F)ccc34)c2C)cc1; 1.1

###

Target: GLUT1 (Homo sapiens, UniProt P11166)
Test: Indirect measurement of GLUT1 activity by quantification of intracellular ATP levels (glucose induced ATP increase)
Type: cell-based
Parameters: endogenous in cells; host or cells: DLD1 or CHO-K1
Conditions: read-out: IC50 regarding glucose induced ATP increase (GLUT1 inhibition)
pIC50: −log10 of the molar value.
property: pIC50

Cc1nn(Cc2ccc(C#N)nc2)c(C)c1NC(=O)c1cc(C(N)=O)nc2ccc(F)cc12; 7.50
CC(=O)c1ccc(Cn2nc(C)c(NC(=O)c3cc(C(N)=O)nc4cccc(F)c34)c2C)cc1; 8.92
Cc1nn(Cc2ccc(C(=O)Nc3ccccc3C(N)=O)cc2)c(C)c1NC(=O)c1cc(C(F)(F)F)nc2ccc(Br)cc12; 8.24
Cc1nn(Cc2ccc(F)cc2C#N)c(C)c1NC(=O)c1cc(C(N)=O)nc2ccccc12; 8.47

###

Target: GLUT1 (Homo sapiens)
Assay: Indirect measurement of GLUT1 activity by quantification of intracellular ATP levels (glucose induced ATP increase)
Format: cell-based
Parameters: endogenous in cells; host or cells: DLD1 or CHO-K1
Settings: read-out: IC50 regarding glucose induced ATP increase (GLUT1 inhibition)
pIC50: −log10 of the molar value.
The reader will find reported pIC50 values listed item by item below.
property: pIC50

Cc1ccc2nc(C)cc(C(=O)Nc3c(C)nn(Cc4cc(F)cc(F)c4)c3C)c2c1 [Example 1296]; 4.95
Cc1nn(Cc2ccc(C#N)cc2F)c(C)c1NC(=O)c1cc(C(N)=O)nc2ccccc12 [Example 297]; 9.10
COc1ccc(Cn2nc(C)c(NC(=O)c3cc(C(N)=O)nc4cc(F)c(Cl)cc34)c2C)cc1 [Example 214]; 8.96
Cc1nn(Cc2ccccc2OC(F)(F)F)c(C)c1NC(=O)c1cc(C(F)(F)F)nc2c(Cl)cc(Cl)cc12 [Example 1288]; 5.20
COc1cc2c(C(=O)Nc3c(C(F)(F)F)nn(Cc4ccc(C#N)cc4)c3C)cc(C(N)=O)nc2cc1F [Example 242]; 9.00
Cc1c(NC(=O)c2cc(C(N)=O)nc3cc(F)c(Cl)cc23)c(C(C)C)nn1Cc1ccc(C#N)cc1 [Example 324]; 8.72
Cc1c(NC(=O)c2cc(C(N)=O)nc3cc(F)c(Cl)cc23)c(C(F)(F)F)nn1Cc1ccc(C#N)s1 [Example 421]; 8.54
Cc1c(NC(=O)c2cc(C(N)=O)nc3cc(F)ccc23)c(C(F)(F)F)nn1C(C)c1ccccc1 (single isomer, unassigned) [Example 335]; 8.80
Cc1nn(Cc2cccnc2C#N)c(C)c1NC(=O)c1cc(C(N)=O)nc2cc(F)c(F)cc12 [Example 220]; 8.19
Cc1nn(Cc2cccc(S(C)(=O)=O)c2)c(C)c1NC(=O)c1cc(C(N)=O)nc2ccccc12 [Example 1642]; 6.54
Cc1nn(Cc2ccc(C(=O)N3CCC3)cc2)c(C)c1NC(=O)c1cc(C(N)=O)nc2cc(F)ccc12 [Example 1419]; 7.61
COc1cc(C#N)ccc1Cn1nc(C(F)(F)F)c(NC(=O)c2cc(C(N)=O)nc3cc(F)c(Cl)cc23)c1C [Example 1648]; 8.64
Cc1c(NC(=O)c2cc(C(N)=O)nc3cccc(F)c23)c(C(F)(F)F)nn1Cc1cccc(C#N)c1 [Example 1581]; 7.57
Cc1nn(Cc2ccc(C(=O)NCCF)cc2)c(C)c1NC(=O)c1cc(C(F)(F)F)nc2ccc(Br)cc12 [Example 1030]; 8.49
Cc1ccccc1Cn1nc(C(F)(F)F)c(NC(=O)c2cc(C(N)=O)nc3cccc(F)c23)c1C [Example 1496]; 8.21

All values here come from patent US20170037028A1.
